- Experiment Notes: BSK_hDFCGF_Proliferation: Cell Proliferation Assessment in the BioMAP Diversity Plus: hDFCGF Assay (AID 2283059);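 also: curves fitted for both rise and fall of signal versus DMSO baseline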
- Condition: primary human foreskin fibroblasts
- Experimental: BSK_hDFCGF is a cell-based, multiplexed-readout assay that uses foreskin fibroblast, a human skin primary cell, with measurements taken at 24 hours after chemical dosing in a 96-well plate.BSK_hDFCGF_Proliferation is an assay component measured in the BSK_hDFCGF assay. It measures […] related to cell proliferation using Sulforhodamine staining technology.Data from the assay component BSK_hDFCGF_Proliferation was analyzed into 1 assay endpoint. […]
Active and inactive are the calls of the source. The calls were made as follows: active = hit-call score of the fitted dose curve at least 0.9, where 1 is the maximum; inactive = score below 0.9.
Form entry, call: pick from 1 = active, 0 = inactive

Task: Could you check what this test reported for `Clc1cccc(Cl)c1` ?
Result: 0

Task: Identify the outcome logged in this assay for the compound shown: `CC(C)O.CC(C)O.OCCN(CCO)CCO.OCCN(CCO)CCO.[Ti]`
Result: 0

Task: Which outcome was assigned to `O=C(N[C@H]1CN2CCC1CC2)c1ccc2c(c1)OCCO2` in this test?
Result: 0

Task: Could you check what this test reported for `CCCCN(CCCC)C(=S)[S-].CCCCN(CCCC)C(=S)[S-].[Ni+2]` ?
Result: 0

Task: So what was the verdict on `COc1ccccc1N` in this test?
Result: 0

Task: # fetch the recorded call for `NC(=O)CCl` here
Result: 0

Task: Assay result, entry CCOC(=O)C(SP(=S)(OC)OC)c1ccccc1 (stereo not given) — outcome?
Result: 1

Task: Give the logged outcome of this assay for the following compound: `CCOP(=S)(OCC)OP(=S)(OCC)OCC`
Result: 1

Task: Tell me the assay call for Cc1cc(Cl)ccc1OC(C)C(=O)O (stereo not given) please.
Result: 0

Task: # outcome recorded in this test, key = `c1ccc(-c2cccc(-c3ccccc3)c2)cc1`
Result: 1

----------
- Experiment Notes: CEETOX_H295R_OHPROG: CeeTox H295R High-throughput Steroidogenesis Assay for OH-Progesterone (OHPROG) (AID 2283435)
- Condition: actives raise or lower the signal
Activity calls are given as the source filed them. Rule for the calls: active = hit-call score of the fitted dose curve at least 0.9, where 1 is the maximum; inactive = score below 0.9.
Hello, when you answer, please use one of the following outcomes: 1 (yes) (active), 0 (no) (inactive)

Task: State the result this test recorded for `CCCCCCCCCCCCN(C)C` .
Result: 0 (no)

Task: Recorded test call requested for `Nc1ccc(N)cc1`
Result: 0 (no)

Task: Per the assay record, what outcome was assigned to OC(Cc1ccccc1Cl)(Cn1[nH]cnc1=S)C1(Cl)CC1 (configuration not stated) ?
Result: 0 (no)

Task: Dear colleague, could you share the recorded outcome for `Oc1c(Cl)cc(Cl)cc1Cl` when you have a moment?
Result: 1 (yes)

Task: Which outcome was assigned to `Cc1cc(C)cc(C)c1` in this test?
Result: 0 (no)

Task: For O=S1OC[C@@H]2[C@H](CO1)[C@]1(Cl)C(Cl)=C(Cl)[C@@]2(Cl)C1(Cl)Cl (some centres not stated) , which call appears in the assay record?
Result: 1 (yes)

Task: What call does the record list for `CC(C)(C)c1cc([N+](=O)[O-])cc(C(C)(C)C)c1O` ?
Result: 0 (no)

----------
- Read-out: Collagen III, COL3A1 (gene 1281)
- Experiment Notes: BSK_hDFCGF_CollagenIII: BioMAP Diversity Plus: hDFCGF Assay for Collagen III Biomarker Activity (AID 2283056)
- Condition: primary human foreskin fibroblasts; actives raise or lower the signal
Activity calls are given as the source filed them. How the source made its calls: active means hit-call score of the fitted dose curve at least 0.9, where 1 is the maximum; inactive means score below 0.9.
Use one of these outcomes when replying: YES for active, NO for inactive

Task: Assay outcome for `O=S(=O)(c1ccc(Cl)cc1)c1cc(Cl)c(Cl)cc1Cl` : what was it?
Result: YES

Task: What did this assay record as the result for `CCOC(=O)CC(=O)CCl` ?
Result: NO

Task: Any idea what this test logged for `Cc1cc(Cl)ccc1N` ?
Result: NO

Task: How did this test come out for `Oc1c(Cl)cc(Cl)cc1Cl` ?
Result: NO

Task: Recorded call for `Cc1ccc2nc3sc(=O)sc3nc2c1` ?
Result: NO

Task: For this compound, state the assay outcome: `NC(=O)CCl`
Result: YES

Task: Give the logged outcome of this assay for the following compound: CC(C)=CC1C(C(=O)OCc2cccc(Oc3ccccc3)c2)C1(C)C (centres undefined)
Result: YES

Task: Would you mind telling me which call this test gave `COc1ccccc1N` ?
Result: NO

Task: Outcome logged for `Nc1c(Oc2ccccc2)cc(O)c2c1C(=O)c1ccccc1C2=O` in this assay:
Result: NO

Task: Dear all, I need the recorded test outcome for `CCCCOC(=O)COC(=O)c1ccccc1C(=O)OCCCC` , thank you.
Result: NO

Task: Status in this test for Cc1cc(Cl)ccc1OC(C)C(=O)O (centres undefined) ?
Result: NO

Task: Would you mind telling me which call this test gave `C[C@]12CC[C@@H](O)C[C@@H]1CC[C@@H]1[C@@H]2CC[C@]2(C)C(=O)CC[C@@H]12` ?
Result: NO

Task: GET /call?item= CCC(C)(C#N)N=NC(C)(C#N)CC (centres undefined) returns the recorded outcome of this test.
Result: NO

Task: # outcome recorded in this test, key = `O=C(CCl)NCO`
Result: NO
